Overview of reported relative viability across a group of compounds:
System: NCI-H2347
Assay: relative viability (nuclei count vs DMSO), 5 days (fraction); higher = more cells survive
Conditions: first compound 0.02 µM
Format: numeric value only, no unit, no commentary.

| COMPOUND | EXPERIMENTAL_VALUE |
| --- | --- |
| CN1CCN(CCOc2cc(OC3CCOCC3)c3c(Nc4c(Cl)ccc5c4OCO5)ncnc3c2)CC1 [Saracatinib] + COc1cccc2cc(-c3nc([C@H]4CC[C@H](C(=O)O)CC4)n4ncnc(N)c34)[nH]c12 [OSI-027] (partner 0.5 µM) | 0.348 |
| CN1CCN(CCOc2cc(OC3CCOCC3)c3c(Nc4c(Cl)ccc5c4OCO5)ncnc3c2)CC1 [Saracatinib] + CC1(C)CCC(c2ccc(Cl)cc2)=C(CN2CCN(c3ccc(C(=O)NS(=O)(=O)c4ccc(N[C@H](CCN5CCOCC5)CSc5ccccc5)c(S(=O)(=O)C(F)(F)F)c4)cc3)CC2)C1 [Navitoclax] (partner 0.5 µM) | 0.725 |

If you can, please state the reported relative viability value of CCNC(=O)c1noc(-c2cc(C(C)C)c(O)cc2O)c1-c1ccc(CN2CCOCC2)cc1 [Luminespib] + O=C(c1cc(Cc2n[nH]c(=O)c3ccccc23)ccc1F)N1CCN(C(=O)C2CC2)CC1 [Olaparib] (partner 8 µM) .
0.7

Further, for CCNC(=O)c1noc(-c2cc(C(C)C)c(O)cc2O)c1-c1ccc(CN2CCOCC2)cc1 [Luminespib] + Nc1nc2[nH]cc(CCc3ccc(C(=O)N[C@@H](CCC(=O)O)C(=O)O)cc3)c2c(=O)[nH]1 [Pemetrexed] (partner 0.2 µM) ?
0.426

Lookup CCNC(=O)c1noc(-c2cc(C(C)C)c(O)cc2O)c1-c1ccc(CN2CCOCC2)cc1 [Luminespib] + C[C@@H](Oc1cc(-c2cnn(C3CCNCC3)c2)cnc1N)c1c(Cl)ccc(F)c1Cl [Crizotinib] (partner 1 µM)
0.625

Follow-up item: CCNC(=O)c1noc(-c2cc(C(C)C)c(O)cc2O)c1-c1ccc(CN2CCOCC2)cc1 [Luminespib] + CC(=O)c1c(C)c2cnc(Nc3ccc(N4CCNCC4)cn3)nc2n(C2CCCC2)c1=O [Palbociclib] (partner 0.5 µM)
0.38

CCNC(=O)c1noc(-c2cc(C(C)C)c(O)cc2O)c1-c1ccc(CN2CCOCC2)cc1 [Luminespib] + CC1(C)CCC(c2ccc(Cl)cc2)=C(CN2CCN(c3ccc(C(=O)NS(=O)(=O)c4ccc(N[C@H](CCN5CCOCC5)CSc5ccccc5)c(S(=O)(=O)C(F)(F)F)c4)cc3)CC2)C1 [Navitoclax] (partner 0.5 µM) , same question.
0.483

How about CN1CCN(CCOc2cc(OC3CCOCC3)c3c(Nc4c(Cl)ccc5c4OCO5)ncnc3c2)CC1 [Saracatinib] + Nc1nc2[nH]cc(CCc3ccc(C(=O)N[C@@H](CCC(=O)O)C(=O)O)cc3)c2c(=O)[nH]1 [Pemetrexed] (partner 0.2 µM) ?
0.435

Same question for CN1CCN(CCOc2cc(OC3CCOCC3)c3c(Nc4c(Cl)ccc5c4OCO5)ncnc3c2)CC1 [Saracatinib] + Cc1cc(Nc2cc(N3CCN(C)CC3)nc(Sc3ccc(NC(=O)C4CC4)cc3)n2)n[nH]1 [Tozasertib] (partner 0.1 µM) please.
0.514

Same read-out for CN1CCN(CCOc2cc(OC3CCOCC3)c3c(Nc4c(Cl)ccc5c4OCO5)ncnc3c2)CC1 [Saracatinib] + O=C(CCCCCCC(=O)Nc1ccccc1)NO [Vorinostat] (partner 1 µM) ?
0.558

Item: CN1CCN(CCOc2cc(OC3CCOCC3)c3c(Nc4c(Cl)ccc5c4OCO5)ncnc3c2)CC1 [Saracatinib] + CS(=O)(=O)N1CCN(Cc2cc3nc(-c4cccc5[nH]ncc45)nc(N4CCOCC4)c3s2)CC1 [Pictilisib] (partner 1 µM)
0.654

Same for CCNC(=O)c1noc(-c2cc(C(C)C)c(O)cc2O)c1-c1ccc(CN2CCOCC2)cc1 [Luminespib] + Nc1ncn([C@H]2C[C@H](O)[C@@H](CO)O2)c(=O)n1 [Decitabine] (partner 2 µM)
0.656

What about CCNC(=O)c1noc(-c2cc(C(C)C)c(O)cc2O)c1-c1ccc(CN2CCOCC2)cc1 [Luminespib] + COc1cccc2cc(-c3nc([C@H]4CC[C@H](C(=O)O)CC4)n4ncnc(N)c34)[nH]c12 [OSI-027] (partner 0.5 µM) ?
0.41
